Where do these numbers come from? They come from paper PMC5540273.

# Test system: WNK1;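 also: KINOMEscan kinase panel screen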
# ASSAY CONDITIONS: concentration: 1 μM, replicates: in singlicate; n = 1
%Inh below 1% gives false (0); %Inh at or above it gives true (1).

>>> df
                                   compound  label_value
0  COc1ccc(C)c(Nc2ccnc(Nc3ccc(-c4cnc[nH]4)cc3)n2)c1.Cl [GW784041]    false (0)
1  c1ccc(Oc2ccc(Nc3ccnc4cc(-c5ccc(CN6CCCCC6)o5)ccc34)cc2)nc1 [GW567143]     true (1)
2  CC(C)NCC(Cc1ccccc1)NC(=O)c1cc(Br)c(-c2ccnc3[nH]ccc23)s1.Cl.Cl (centres unmarked) [GSK1383281]    false (0)
3         CN(C)c1ncnc2nc[nH]c12 [SKF-31736]     true (1)
4  O=C(Nc1n[nH]c2nc(-c3ccccc3)ccc12)C1CC1 [SB-708999]     true (1)

Check this compound for %Inh at or above 1%: COc1cccc(NC(=O)NCCNc2ccnc(Nc3ccc(F)cc3)n2)c1 [GSK1379879]
true (1)

Is reported %Inh greater than or equal to 1% here: Nc1ncnc2scc(-c3ccc(NC(=O)Cc4cc(F)ccc4F)cc3)c12.O=C(O)C(F)(F)F [SB-731254-M]
false (0)
